Numbers sourced from patent US4939241A.

# Test system: human mammary adenocarcinoma MCF-7 cell
# Procedure summary: Inhibition of human mammary adenocarcinoma MCF-7 cell growth in vitro (MTT assay)
# Format: cell-based
# Condition set: MCF7, 168 h, MCF-7 cells, seven days at 37° C.
Measured property: IC50 (ng/mL)

1. C[C@@H](O)C(=[N+]=[N-])C(=O)OC[C@H](N)C(=O)O; 0.0018
2. C[C@@H](O)C(=[N+]=[N-])C(=O)OC[C@H](NC(=O)C(F)(F)F)C(=O)O; 0.0068
3. [N-]=[N+]=C(CO)C(=O)OC[C@H](N)C(=O)O; 0.0017
4. [N-]=[N+]=C(C(=O)OC[C@H](N)C(=O)O)C(O)c1ccccc1 (some centres unmarked); 0.076
5. C[C@H](O)C(=[N+]=[N-])C(=O)OC[C@H](N)C(=O)O; 0.00082

====

# Tested on: human lung adenocarcinoma A549 cell
# Procedure summary: Inhibition of human lung adenocarcinoma A549 cell growth in vitro (MTT assay)
# Format: cell-based
# Condition set: 168 h, A549 cells, seven days at 37° C.
Measured property: IC50 (ng/mL)

1) [N-]=[N+]=C(C(=O)OC[C@H](N)C(=O)O)C(O)c1ccccc1 (some centres unmarked); 0.14
2) C[C@H](O)C(=[N+]=[N-])C(=O)OC[C@H](N)C(=O)O; 0.018
3) [N-]=[N+]=C(CO)C(=O)OC[C@H](N)C(=O)O; 0.0018
4) C[C@@H](O)C(=[N+]=[N-])C(=O)OC[C@H](NC(=O)C(F)(F)F)C(=O)O; 0.0105
5) C[C@@H](O)C(=[N+]=[N-])C(=O)OC[C@H](N)C(=O)O; 0.012
